- target-under-test: canine FcRn (FcRn large subunit with canine beta-2-microglobulin) (canine)
- experiment-summary: SPR pH 5.5, SASA-Fc captured on BSA, FcRn 100-800 nM
assay-endpoint: koff (s⁻¹)

[[record]]
binder = "canine IgGB Fc (CH2-CH3) L252Y with N-terminal SASA tag (Fc fusion, part only; not given: SASA tag, not shown: another chain or arm of the molecule; small tags and cut ends) Fc: APEMLGGPSVFIFPPKPKDTLYIARTPEVTCVVVDLDPEDPEVQISWFVDGKQMQTAKTQPREEQFNGTYRVVSVLPIGHQDWLKGKQFTCKVNNKALPSPIERTISKARGQAHQPSVYVLPPSREELSKNTVSLTCLIKDFFPPDIDVEWQSNGQQEPESKYRTTPPQLDEDGSYFLYSKLSVDKSRWQRGDTFICAVMHEALHNHYTQESLSHSPGK"
measurement = 0.0476

[[record]]
binder = "wild-type canine IgGB Fc (CH2-CH3) with N-terminal SASA tag (Fc fusion, part only; not given: SASA tag, not shown: another chain or arm of the molecule; small tags and cut ends) Fc: APEMLGGPSVFIFPPKPKDTLLIARTPEVTCVVVDLDPEDPEVQISWFVDGKQMQTAKTQPREEQFNGTYRVVSVLPIGHQDWLKGKQFTCKVNNKALPSPIERTISKARGQAHQPSVYVLPPSREELSKNTVSLTCLIKDFFPPDIDVEWQSNGQQEPESKYRTTPPQLDEDGSYFLYSKLSVDKSRWQRGDTFICAVMHEALHNHYTQESLSHSPGK"
measurement = 0.527

[[record]]
binder = "canine IgGB Fc (CH2-CH3) N434H with N-terminal SASA tag (Fc fusion, part only; not given: SASA tag, not shown: another chain or arm of the molecule; small tags and cut ends) Fc: APEMLGGPSVFIFPPKPKDTLLIARTPEVTCVVVDLDPEDPEVQISWFVDGKQMQTAKTQPREEQFNGTYRVVSVLPIGHQDWLKGKQFTCKVNNKALPSPIERTISKARGQAHQPSVYVLPPSREELSKNTVSLTCLIKDFFPPDIDVEWQSNGQQEPESKYRTTPPQLDEDGSYFLYSKLSVDKSRWQRGDTFICAVMHEALHHHYTQESLSHSPGK"
measurement = 0.102

[[record]]
binder = "canine IgGB Fc (CH2-CH3) N434W with N-terminal SASA tag (Fc fusion, part only; not given: SASA tag, not shown: another chain or arm of the molecule; small tags and cut ends) Fc: APEMLGGPSVFIFPPKPKDTLLIARTPEVTCVVVDLDPEDPEVQISWFVDGKQMQTAKTQPREEQFNGTYRVVSVLPIGHQDWLKGKQFTCKVNNKALPSPIERTISKARGQAHQPSVYVLPPSREELSKNTVSLTCLIKDFFPPDIDVEWQSNGQQEPESKYRTTPPQLDEDGSYFLYSKLSVDKSRWQRGDTFICAVMHEALHWHYTQESLSHSPGK"
measurement = 0.045

[[record]]
binder = "canine IgGB Fc (CH2-CH3) A426Y with N-terminal SASA tag (Fc fusion, part only; not given: SASA tag, not shown: another chain or arm of the molecule; small tags and cut ends) Fc: APEMLGGPSVFIFPPKPKDTLLIARTPEVTCVVVDLDPEDPEVQISWFVDGKQMQTAKTQPREEQFNGTYRVVSVLPIGHQDWLKGKQFTCKVNNKALPSPIERTISKARGQAHQPSVYVLPPSREELSKNTVSLTCLIKDFFPPDIDVEWQSNGQQEPESKYRTTPPQLDEDGSYFLYSKLSVDKSRWQRGDTFICYVMHEALHNHYTQESLSHSPGK"
measurement = 0.102

